Assay: ATG_ISRE_CIS: Attagene CIS-FACTORIAL HepG2 Assay for human Interferon Regulatory Factor 1 (IRF1) binding to an Interferon-Stimulated Response Element (ISRE) (AID 2282948)
Conditions: HepG2 ISRE cis-reporter (Attagene), mRNA transcription readout; actives raise or lower the signal
Activity calls are given as the source filed them. How the source made its calls: active means hit-call score of the fitted dose curve at least 0.9, where 1 is the maximum; inactive means score below 0.9.
Classes used: active, inactive

INSERT INTO measurements (molecule, label_value) VALUES
  ('Cn1ccnc1', 'inactive'),
  ('Nc1nc(N)nc(-c2ccccc2)n1', 'inactive'),
  ('CCCCCCCCCCCCCc1ccccc1', 'inactive'),
  ('CCCCC1CCC(=O)O1 (configuration not stated)', 'inactive'),
  ('CC(C)(C)C1CCC(=O)CC1', 'inactive'),
  ('COCC(=O)O', 'inactive'),
  ('Cc1ccc([N+](=O)[O-])cc1N', 'inactive'),
  ('CC(C)CO', 'inactive'),
  ('CC(=O)OC1CCCCC1C(C)(C)C (configuration not stated)', 'inactive'),
  ('O=S(=O)(O)c1ccc(N=Nc2c(O)ccc3ccccc23)cc1', 'inactive'),
  ('COC(=O)CC(C)CCC=C(C)C (configuration not stated)', 'inactive'),
  ('Cc1ccc(C)c(OCCCC(C)(C)C(=O)O)c1', 'inactive'),
  ('Cc1cccc(C(C)(C)C)c1O', 'inactive'),
  ('C1CNCCN1', 'inactive'),
  ('COc1nccnc1CC(C)C', 'inactive'),
  ('CCCCCCO', 'inactive'),
  ('O=C(C=Cc1ccccc1)OCCc1ccccc1', 'active');

* * *

Read-out: Thrombomodulin, THBD (gene 7056)
Experiment: BSK_CASM3C_Thrombomodulin: BioMAP Diversity Plus: CASM3C Assay for Thrombomodulin Biomarker Activity (AID 2283051);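 further: thrombomodulin protein level measured by ELISA 24 h after dosing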
Conditions: primary human coronary artery smooth muscle cells; actives raise or lower the signal
Activity calls are given as the source filed them. Rule for the calls: active = hit-call score of the fitted dose curve at least 0.9, where 1 is the maximum; inactive = score below 0.9.
Endpoint: outcome

INSERT INTO assay_data (smiles_record, endpoint_result) VALUES
  ('Fc1ccc(Br)cc1', 'inactive'),
  ('CCOC(=O)C1=NOC(c2ccccc2)(c2ccccc2)C1', 'inactive'),
  ('Oc1c(Cl)cc(Cl)c(Cl)c1Cl', 'inactive'),
  ('CC(C)[N+](C)(CCOC(=O)C1c2ccccc2Oc2ccccc21)C(C)C', 'inactive'),
  ('COc1ccc(C(=O)c2ccccc2)c(O)c1', 'inactive'),
  ('CCCCCCCO', 'inactive'),
  ('O=C(Oc1ccccc1)c1ccccc1C(=O)Oc1ccccc1', 'inactive');

* * *

Read-out: Human Leukocyte Antigen - DR isotype (HLADR), HLA-DRA (gene 3122)
Assay: BSK_3C_HLADR: BioMAP Diversity Plus: 3C Assay for Human Leukocyte Antigen - DR isotype (HLADR) Biomarker Activity (AID 2283019)
Conditions: primary human endothelial cells (HUVEC); actives raise or lower the signal
Activity calls are given as the source filed them. How the source made its calls: active means hit-call score of the fitted dose curve at least 0.9, where 1 is the maximum; inactive means score below 0.9.
Classes used: yes (1) for active, no (0) for inactive

INSERT INTO assay_data (compound, label_value) VALUES
  ('Oc1ccccc1Cc1ccccc1O', 'no (0)'),
  ('O=C(Cl)c1c(Cl)c(Cl)c(C(=O)Cl)c(Cl)c1Cl', 'no (0)'),
  ('CC/C=C\C/C=C\C/C=C\CCCCCCCC(=O)OC', 'yes (1)'),
  ('C=CC(=O)NC(C)(C)C', 'no (0)'),
  ('CC/C=C\CCOC(=O)c1ccccc1O', 'yes (1)'),
  ('CC=C(C)C=CC=C(C)C', 'yes (1)'),
  ('C=CC(=O)OCCCCCCOC(=O)C=C', 'yes (1)'),
  ('c1ccc2sc(SSN3CCOCC3)nc2c1', 'yes (1)'),
  ('C=CC(=O)OCCCCCCCC(C)C', 'no (0)'),
  ('CCCCCC1=CCCC1=O', 'yes (1)'),
  ('CCCCCCOC(=O)CCCCC(=O)OCCCCCC', 'no (0)'),
  ('C1CNCCN1', 'no (0)'),
  ('CC(CCC(=O)O)(c1ccc(O)cc1)c1ccc(O)cc1', 'no (0)'),
  ('CCCCCCCCC(CO)CCCCCC (stereo not given)', 'no (0)'),
  ('CCc1cccc(C)c1N(C(=O)CS(=O)(=O)O)C(C)COC (stereo not given)', 'no (0)'),
  ('CCCCCCCCCCCC(C)=O', 'yes (1)'),
  ('Fc1ccc(Br)cc1', 'no (0)'),
  ('CCCCCCC=O', 'no (0)'),
  ('CCNc1nc(NC(C)(C)C)nc(OC)n1', 'no (0)'),
  ('C=CCCCCCCCCC=O', 'no (0)');
